This collection of values is drawn from the supplement of paper PMC7877785.

# test name: self-splicing fitness, log relative to wild type (ln ratio); higher = more splicing; Tetrahymena group I intron in knt gene, E. coli kanamycin selection, DiMSum; sequences stand for … in CUCUCU…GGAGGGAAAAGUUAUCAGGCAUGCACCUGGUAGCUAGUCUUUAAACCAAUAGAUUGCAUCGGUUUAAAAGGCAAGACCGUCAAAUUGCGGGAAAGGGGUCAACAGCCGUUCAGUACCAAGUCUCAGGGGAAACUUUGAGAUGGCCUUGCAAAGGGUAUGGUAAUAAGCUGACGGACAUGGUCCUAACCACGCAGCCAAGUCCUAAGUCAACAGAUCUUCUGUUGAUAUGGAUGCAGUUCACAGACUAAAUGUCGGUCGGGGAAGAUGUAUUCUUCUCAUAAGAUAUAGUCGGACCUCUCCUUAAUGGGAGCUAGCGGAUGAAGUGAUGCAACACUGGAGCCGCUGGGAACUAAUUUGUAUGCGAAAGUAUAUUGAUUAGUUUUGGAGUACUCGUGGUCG;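 further: selection with 25 µg/mL kanamycin versus none on LB agar overnight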
# test settings: 30 °C
self-splicing fitness (ln) values by entry
Lab note: jot the number down without any unit.

Please review the following examples before continuing.
CUGAAGCAAUAUUACGAGCA; -3.59
CUAGAGCAAUAUUACGCCAA; -0.987
UAAGAGCAAUAUUACGGCCG; -1.79

Exercise: Look up and state reported self-splicing fitness (ln) for `CGAAAGCAAUAUUACGAAUA`
Key: -2.47

Exercise: Supply self-splicing fitness (ln) value. Item: `UGUUAGCAAUAUUACGCCGC`
Key: -3.34

Exercise: State, in one line, measured self-splicing fitness (ln) of `AGCAAGCAAUAUUACGCCGU`
Key: -1.05

Exercise: Let me know recorded self-splicing fitness (ln) for `GUAGAGCAAUAUUACGUAUU` , thanks.
Key: -2.43

Exercise: Supply measured self-splicing fitness (ln) of `GAGCAGCAAUAUUACGCGAG` in your reply.
Key: -2.38

====

# Lookup of reported self-splicing fitness (ln) keyed by entry
# test name: self-splicing fitness, log relative to wild type (ln ratio); higher = more splicing; Tetrahymena group I intron in knt gene, E. coli kanamycin selection, DiMSum; sequences stand for … in CUCUCU…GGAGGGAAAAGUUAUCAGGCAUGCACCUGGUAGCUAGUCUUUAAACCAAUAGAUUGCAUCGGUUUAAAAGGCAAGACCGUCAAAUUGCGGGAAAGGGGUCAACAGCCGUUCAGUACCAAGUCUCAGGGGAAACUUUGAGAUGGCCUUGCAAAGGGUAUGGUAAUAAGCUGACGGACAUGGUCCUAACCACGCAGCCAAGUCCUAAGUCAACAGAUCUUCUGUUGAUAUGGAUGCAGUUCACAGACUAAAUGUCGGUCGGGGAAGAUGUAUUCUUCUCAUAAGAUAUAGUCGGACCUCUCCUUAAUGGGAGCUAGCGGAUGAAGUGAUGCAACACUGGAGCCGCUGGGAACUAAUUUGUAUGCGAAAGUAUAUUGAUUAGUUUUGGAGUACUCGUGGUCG
# test settings: 37 °C

GGAAAGCAAUAUUACGUGCG; -0.596

Exercise: Indicate its recorded self-splicing fitness (ln); the sequence in question is `CGCUAGCAAUAUUACGGGUU`
Key: -2.04

Exercise: Name the recorded self-splicing fitness (ln) of the item `AUACAGCAAUAUUACGUAAU` in your answer.
Key: -0.584

====

# test name: self-splicing fitness, log relative to wild type (ln ratio); higher = more splicing; Tetrahymena group I intron in knt gene, E. coli kanamycin selection, DiMSum; sequences stand for … in CUCUCU…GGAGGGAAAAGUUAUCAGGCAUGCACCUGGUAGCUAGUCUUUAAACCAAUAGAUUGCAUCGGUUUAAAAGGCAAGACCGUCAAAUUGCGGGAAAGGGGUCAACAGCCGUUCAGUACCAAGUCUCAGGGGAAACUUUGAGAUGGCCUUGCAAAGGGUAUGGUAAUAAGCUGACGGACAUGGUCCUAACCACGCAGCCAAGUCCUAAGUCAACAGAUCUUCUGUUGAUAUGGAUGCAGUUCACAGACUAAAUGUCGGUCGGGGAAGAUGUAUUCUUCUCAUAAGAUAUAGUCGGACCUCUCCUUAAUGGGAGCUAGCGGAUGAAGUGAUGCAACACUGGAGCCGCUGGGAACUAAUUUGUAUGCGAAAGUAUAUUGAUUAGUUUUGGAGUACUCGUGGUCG
# test settings: 37 °C
measurement name: self-splicing fitness (ln)

Known results for sequences:
GCAAAGCAAUAUUACGCAAU; -1
AUCAAGCAAUAUUACGAAUA; -1.44
CCUUAGCAAUAUUACGAUUG; -0.965
GAAAAGCAAUAUUACGCCAC; -2.7
GAUUAGCAAUAUUACGGAUC; -2.18

Exercise: Output self-splicing fitness (ln) of `AUUAAGCAAUAUUACGAUAU`
Key: -0.415

Exercise: Consider the sequence `AAAGAGCAAUAUUACGUCUU` and give its recorded self-splicing fitness (ln).
Key: -1.41

Exercise: Entry `CGUUAGCAAUAUUACGUUAC` needs its self-splicing fitness (ln) filled in; supply it.
Key: -2.83

====

This listing pairs sequences with measured self-splicing fitness (ln).
# test name: self-splicing fitness, log relative to wild type (ln ratio); higher = more splicing; Tetrahymena group I intron in knt gene, E. coli kanamycin selection, DiMSum; sequences stand for … in CUCUCU…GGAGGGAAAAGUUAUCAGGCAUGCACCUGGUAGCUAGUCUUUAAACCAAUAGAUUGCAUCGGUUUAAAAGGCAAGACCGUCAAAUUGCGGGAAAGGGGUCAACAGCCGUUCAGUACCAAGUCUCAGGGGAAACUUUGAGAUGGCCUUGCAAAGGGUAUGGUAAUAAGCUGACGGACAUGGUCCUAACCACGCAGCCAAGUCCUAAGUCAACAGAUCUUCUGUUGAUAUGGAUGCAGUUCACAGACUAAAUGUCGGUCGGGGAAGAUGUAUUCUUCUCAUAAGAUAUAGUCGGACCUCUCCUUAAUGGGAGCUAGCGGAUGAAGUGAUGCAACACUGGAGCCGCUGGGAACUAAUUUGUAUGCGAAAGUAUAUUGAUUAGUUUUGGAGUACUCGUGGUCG
# test settings: 37 °C
// no unit, no text: just the number

Consider the worked cases shown below.
CUUAAGCAAUAUUACGGUUC; -3.1
GUGCAGCAAUAUUACGCGUU; -1.18
CCCAAGCAAUAUUACGACCG; -3.03
GUGGAGCAAUAUUACGUUUG; -2.79

Exercise: Tell me measured self-splicing fitness (ln) for `GGAUAGCAAUAUUACGGCAU` please.
Key: 0.598

Exercise: Report measured self-splicing fitness (ln); entry is `UGGUAGCAAUAUUACGACAU`
Key: -0.583

====

# test name: self-splicing fitness, log relative to wild type (ln ratio); higher = more splicing; Tetrahymena group I intron in knt gene, E. coli kanamycin selection, DiMSum; sequences stand for … in CUCUCU…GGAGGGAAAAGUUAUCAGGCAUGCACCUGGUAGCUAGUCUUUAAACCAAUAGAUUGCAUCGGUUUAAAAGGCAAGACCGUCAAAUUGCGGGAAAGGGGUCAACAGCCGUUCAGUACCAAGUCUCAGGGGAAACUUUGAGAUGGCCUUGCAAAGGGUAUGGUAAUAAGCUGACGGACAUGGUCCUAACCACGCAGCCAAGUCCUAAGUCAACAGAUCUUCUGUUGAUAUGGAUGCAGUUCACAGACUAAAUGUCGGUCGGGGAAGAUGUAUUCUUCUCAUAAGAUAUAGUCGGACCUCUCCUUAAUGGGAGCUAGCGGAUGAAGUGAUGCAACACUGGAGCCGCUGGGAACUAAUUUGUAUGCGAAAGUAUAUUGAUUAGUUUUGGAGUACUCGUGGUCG
# test settings: 30 °C
Assign Condition met to entries whose self-splicing fitness (ln) meets or exceeds -3; assign Condition not met to the rest.

Some entries whose results are on file:
AUCCAGCAAUAUUACGAAUC; Condition met
CCGGAGCAAUAUUACGCGGU; Condition not met
CCGAAGCAAUAUUACGAAUG; Condition met
AAGGAGCAAUAUUACGGCAA; Condition met
ACGCAGCAAUAUUACGAAAU; Condition met
UGAGAGCAAUAUUACGGAUG; Condition not met

Exercise: Could you please find out whether `AGAUAGCAAUAUUACGAGUA` has self-splicing fitness (ln) that meets -3 or exceeds it?
Key: Condition met

Exercise: Hi team, for `CCGAAGCAAUAUUACGUUAG` , is the recorded self-splicing fitness (ln) at or above -3?
Key: Condition met

Exercise: Hi team, for `CGUUAGCAAUAUUACGAACU` , is the recorded self-splicing fitness (ln) at or above -3?
Key: Condition met

Exercise: Would you say `CCCCAGCAAUAUUACGACGA` shows self-splicing fitness (ln) at minimum -3?
Key: Condition not met

Exercise: # check: self-splicing fitness (ln) of `GAGCAGCAAUAUUACGUCAU` is greater than or equal to -3
Key: Condition met
